target: Disintegrin and metalloproteinase domain-containing protein 10 (Homo sapiens); assay: blockers of ADAM10 peptide cleavage – biochemical, FRET, human ADAM10, counter-screen for ADAM17 exosite inhibitor project (AID 743256); details: recombinant ADAM10, EDANS/DABCYL FRET peptide cleavage, 3 h; at 6.95 µM; stronger effect = higher value;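 further: 0% = DMSO wells and 100% = marimastat wells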
In all, about 2,900 compounds went through this assay and about 1,300 (45%) were called active. The set was probably picked from earlier hits. Only a sample is shown.
ENDPOINT: inhibition (%)

                                   compound    endpoint  measured_result
0  CC(=O)Nc1ccc(S(=O)(=O)Oc2ccc(Br)cc2C(=S)N2CCOCC2)cc1  inhibition             13.5
1           COc1ccc(S(=O)(=O)N2CCCCC2)cc1Br  inhibition             10.7
2  COc1ccc(C(=O)NN2C(=O)C3C(c4ccccc4)C=CC(c4ccccc4)C3C2=O)cc1 (stereo not given)  inhibition             25.6
3  CC1(C)C=Cc2c(ccc3c2OC[C@@H](c2ccc(O)cc2O)C3)O1  inhibition             24.2
4  N#C/C(=C/c1ccc(N2CCCCC2)o1)C(=O)NCCc1c[nH]c2ccccc12  inhibition             23.4
5   Cc1cc(C)cc(NC(=S)NCCc2c[nH]c3ccccc23)c1  inhibition               14
6  CC1(Cc2cccc(C#N)c2)C(=O)Nc2ccc(-c3cccc(C(F)(F)F)c3)cc21 (stereo not given)  inhibition             36.6
7  CN(C)c1ccc(NC(=O)NC2CCCCN(Cc3ccc(Cl)cc3)C2=O)cc1 (stereo not given)  inhibition              1.4
8      O=C(CSc1nnc(Nc2ccccc2)s1)Nc1cccnc1Cl  inhibition             10.6
9  COc1ccc(S(=O)(=O)N2CCN(C(C)C(=O)Nc3ccc(C(C)C)cc3)CC2)cc1 (stereo not given)  inhibition             20.5

* * *

target: Disintegrin and metalloproteinase domain-containing protein 10 (Homo sapiens) (UniProt O14672); assay: blockers of ADAM10 peptide cleavage – biochemical, FRET, human ADAM10, counter-screen for ADAM17 exosite inhibitor project (AID 743256); conditions: recombinant ADAM10, EDANS/DABCYL FRET peptide cleavage, 3 h; at 6.95 µM; stronger effect = higher value;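 further: 0% = DMSO wells and 100% = marimastat wells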
Sequence (O14672 214-748 limits assumed): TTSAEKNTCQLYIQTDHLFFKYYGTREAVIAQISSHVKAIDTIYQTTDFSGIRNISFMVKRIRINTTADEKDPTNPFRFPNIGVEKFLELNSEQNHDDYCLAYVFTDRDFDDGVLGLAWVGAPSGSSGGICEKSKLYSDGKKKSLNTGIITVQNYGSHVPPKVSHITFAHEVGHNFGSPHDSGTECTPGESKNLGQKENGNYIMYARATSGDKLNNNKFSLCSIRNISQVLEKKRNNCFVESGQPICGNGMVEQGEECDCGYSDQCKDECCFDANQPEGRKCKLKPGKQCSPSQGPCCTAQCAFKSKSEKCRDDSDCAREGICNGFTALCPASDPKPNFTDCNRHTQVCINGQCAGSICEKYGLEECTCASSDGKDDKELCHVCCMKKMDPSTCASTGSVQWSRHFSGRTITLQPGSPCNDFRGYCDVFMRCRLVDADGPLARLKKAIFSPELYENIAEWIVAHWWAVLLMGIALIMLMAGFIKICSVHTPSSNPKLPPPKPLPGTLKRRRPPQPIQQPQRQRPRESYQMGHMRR
In all, about 2,900 compounds went through this assay and about 1,300 (45%) were called active. So high a share suggests a set chosen from earlier hits. A selection follows.
Please note: yes (1) applies when inhibition is 20% or greater, and no (0) applies otherwise.

>>> print(df.to_string())
                                   compound  class_assignment
0  O=C1NC(=O)C(c2ccc(Cl)cc2)N1 (centres undefined)            no (0)
1  O=C1[C@H]2[C@@H](c3ccc(C(F)(F)F)cc3)N[C@]3(CCCN(Cc4ccc(Br)cc4)C3=O)[C@H]2C(=O)N1Cc1ccccc1           yes (1)
2  COc1cc(NC(=O)CCS(=O)(=O)c2ccc3c(c2)oc(=O)n3C)cc(OC)c1            no (0)
3  CCN1C(=O)C(CC(=O)Nc2cc(C)ccc2C)SC1=Nc1ccc(S(N)(=O)=O)cc1 (centres undefined)            no (0)
4    COc1cccc(CNc2nc(C(F)(F)F)nc3ccccc23)c1            no (0)
5  O=C(CSc1nc(Nc2ccccc2)nc(N2CCOCC2)n1)Nc1cc(Cl)ccc1O           yes (1)
6  C#CCN(C[C@H]1[C@H](OC(=O)NC2CCCC2)[C@H](OC(=O)NC2CCCC2)C[C@H]2C(=O)N(c3ccccc3)C(=O)[C@@H]12)S(=O)(=O)c1ccc(C)cc1            no (0)
7  CCCCCC(=O)N1C[C@H](O)[C@@H](n2cc(COC(=O)c3ccccc3)nn2)C[C@@H]1c1ccc(C)cc1           yes (1)

* * *

target: Disintegrin and metalloproteinase domain-containing protein 10 (Homo sapiens) (UniProt O14672); experiment: blockers of ADAM10 peptide cleavage – biochemical, FRET, human ADAM10, counter-screen for ADAM17 exosite inhibitor project (AID 743256); settings: recombinant ADAM10, EDANS/DABCYL FRET peptide cleavage, 3 h; at 6.95 µM;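 further: 0% = DMSO wells and 100% = marimastat wells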
About 1,300 (45%) of roughly 2,900 compounds were called active.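 How the source made its calls: active means mean inhibition over the triplicate runs exceeds the activity threshold set in the earlier primary screen (cut at about 20% in these data); inactive means the rest.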 The set was probably picked from earlier hits. These entries were drawn from the full list.
Outcomes: 1 (yes) = active, 0 (no) = inactive

                                    molecule  class_assignment
 0     Cc1ccc(/C=N/NC(=O)CSc2nc3ccccc3o2)cc1            0 (no)
 1  CCOc1ccc(-n2c(SCC(=O)Nc3cc(C)c(NC(=O)c4ccccc4)cc3OC)nnc2-c2cccs2)cc1            0 (no)
 2  COC(=O)N(C)C[C@@H]1OCc2cnnn2CCCC(=O)N([C@@H](C)CO)C[C@@H]1C            0 (no)
 3  COc1ccc(C(CNC(=O)c2cc(S(=O)(=O)Nc3cccc(C)c3)ccc2C)N2CCCC2)cc1 (centres undefined)            0 (no)
 4  CC(C)(C)OC(=O)N1CCC(NC(=O)c2[nH]cnc2C(=O)N[C@@H](Cc2ccccc2)C(=O)OCc2ccccc2)CC1           1 (yes)
 5  Cc1sc2nc(SCC(=O)c3ccc(O)c(O)c3)n(Cc3ccco3)c(=O)c2c1C            0 (no)
 6     CCn1c(Cc2cccs2)nnc1SCC(=O)c1ccc(C)cc1            0 (no)
 7  Cc1ccc(Cn2nnc3c(=O)[nH]c(C4CCN(S(=O)(=O)/C=C/c5ccccc5)CC4)nc32)cc1           1 (yes)
 8  CC(C)(C)OC(=O)CNC(=O)c1[nH]cnc1C(=O)N[C@@H](Cc1ccccc1)C(=O)OCc1ccccc1           1 (yes)
 9  COc1ccc(-c2cc(C3CCN(c4ncccc4[N+](=O)[O-])CC3)[nH]n2)cc1           1 (yes)
10  O=C(COC(=O)CCCSc1nc2ccccc2[nH]1)Nc1ccc(Oc2ccccc2)cc1           1 (yes)
11  Cc1ccc(-n2c(COc3ccccc3)nnc2SCC(=O)Nc2ccc3c(c2)OCCO3)cc1           1 (yes)
12  O=C(Nc1ccc(C(=O)NCc2ccccc2Cl)cc1)C1=CSCCO1            0 (no)
13   O=C(Cc1ccc(Cl)c(Cl)c1)Nc1ccc(SC(F)F)cc1           1 (yes)
14  Cn1c(=O)c2c(nc(N/N=C/c3cccs3)n2Cc2ccc(Br)cc2)n(C)c1=O            0 (no)
15  COc1ccccc1C(=O)NCC(=O)OCC(=O)NNC(=O)c1ccc(Br)cc1            0 (no)
16  COc1ccc(C(=O)Nc2ccc(C3(C#N)CCCC3)cc2)cc1OC            0 (no)
17  Cc1ccc(S(=O)(=O)N2CCN(C(=O)COC(=O)c3c(C)cc(C)cc3C)CC2)c(C)c1            0 (no)
18  COC(C(=O)Nc1ccc(S(=O)(=O)Nc2ccc(C)c(C)c2)cc1)c1ccccc1 (centres undefined)           1 (yes)

* * *

biological target: Disintegrin and metalloproteinase domain-containing protein 10 (Homo sapiens) (UniProt O14672); test: blockers of ADAM10 peptide cleavage – biochemical, FRET, human ADAM10, counter-screen for ADAM17 exosite inhibitor project (AID 743256); conditions: recombinant ADAM10, EDANS/DABCYL FRET peptide cleavage, 3 h; at 6.95 µM;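 further: 0% = DMSO wells and 100% = marimastat wells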
Hit rate of the full screen: of about 2,900 compounds, about 1,300 (45%) were called active.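 The calls were made as follows: active = mean inhibition over the triplicate runs exceeds the activity threshold set in the earlier primary screen (cut at about 20% in these data); inactive = the rest.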 So high a share suggests a set chosen from earlier hits. Not all results are given here.
Labels: 1.0 = active, 0.0 = inactive

                                   compound  class_assignment
0  COc1cc(/C=N/n2c(C)n[nH]c2=S)ccc1OCc1ccccc1               0.0
1  FC(F)(F)Oc1ccccc1C(c1nnnn1C1CCCCC1)N1CCN(C/C=C/c2ccccc2)CC1 (stereo not drawn)               0.0
2  Cc1cc(NC(=O)CN2C(=O)NC(CC(C)C)C2=O)no1 (stereo not drawn)               1.0
3    O=C(COC(=O)c1ccccc1)Nc1ccccc1Sc1ccccc1               1.0
4          Cc1ccccc1C(=O)Nc1ccccc1Sc1ccccc1               0.0
5   O=C(Cc1ncc(C(F)(F)F)cc1Cl)Nc1cccc(Br)c1               0.0
6  CCc1cccc(NC(=O)COC(=O)C2CCN(c3ccc(C(F)(F)F)cn3)CC2)c1               1.0
7  CN(C(=O)c1cccc(NC(=O)Cc2cccc([N+](=O)[O-])c2)c1)C1CCCCC1               1.0
